Molecular target: Cholecystokinin Receptor A (CCKAR) (Homo sapiens, UniProt P32238)
Sequence (P32238 whole entry): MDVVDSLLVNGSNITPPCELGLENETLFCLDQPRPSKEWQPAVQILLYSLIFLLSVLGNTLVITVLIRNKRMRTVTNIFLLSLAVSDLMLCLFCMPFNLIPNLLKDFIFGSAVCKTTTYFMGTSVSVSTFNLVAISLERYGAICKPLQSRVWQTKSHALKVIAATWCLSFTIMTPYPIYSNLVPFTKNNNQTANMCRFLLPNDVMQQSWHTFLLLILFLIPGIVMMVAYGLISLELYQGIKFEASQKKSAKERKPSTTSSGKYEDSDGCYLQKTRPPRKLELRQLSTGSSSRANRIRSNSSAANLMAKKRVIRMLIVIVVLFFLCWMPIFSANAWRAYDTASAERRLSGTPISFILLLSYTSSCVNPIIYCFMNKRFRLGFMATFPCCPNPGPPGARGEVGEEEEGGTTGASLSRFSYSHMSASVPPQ
Assay: SAFETYscan GPCR Calcium Flux
Conditions: Antagonist, read-out: RC50 (the source's name)
propertyName: IC50

For record C=CCC1CCCC(CCC(=O)O)C1=C (stereo not shown) the listed IC50 is > 10 µM

###

Target: 5-Hydroxy tryptamine (Serotonin) Receptor 2B (HTR2B) (Homo sapiens, UniProt P41595)
Sequence (P41595 whole entry): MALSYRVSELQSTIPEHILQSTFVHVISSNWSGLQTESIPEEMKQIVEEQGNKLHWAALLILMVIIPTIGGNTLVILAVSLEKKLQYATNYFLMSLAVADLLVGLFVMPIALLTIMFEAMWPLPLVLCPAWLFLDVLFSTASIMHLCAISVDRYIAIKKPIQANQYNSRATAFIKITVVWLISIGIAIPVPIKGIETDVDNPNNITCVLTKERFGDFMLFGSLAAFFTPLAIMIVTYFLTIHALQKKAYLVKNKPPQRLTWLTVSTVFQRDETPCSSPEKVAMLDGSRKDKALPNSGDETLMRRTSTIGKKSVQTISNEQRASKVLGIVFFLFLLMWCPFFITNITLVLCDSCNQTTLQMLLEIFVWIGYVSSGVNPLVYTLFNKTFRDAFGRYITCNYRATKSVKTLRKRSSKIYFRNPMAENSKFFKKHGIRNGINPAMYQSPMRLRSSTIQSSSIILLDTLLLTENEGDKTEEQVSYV
Experiment: SAFETYscan GPCR Calcium Flux
pEC50: −log10 of the molar value.
propertyName: pEC50

For record C=CCC1CCCC(CCC(=O)O)C1=C (stereo not shown) [HU-MCA-13] the listed pEC50 is < 5.00

###

Target: Adrenergic Receptor α2A (ADRA2A) (Homo sapiens)
Sequence (P08913 1-465): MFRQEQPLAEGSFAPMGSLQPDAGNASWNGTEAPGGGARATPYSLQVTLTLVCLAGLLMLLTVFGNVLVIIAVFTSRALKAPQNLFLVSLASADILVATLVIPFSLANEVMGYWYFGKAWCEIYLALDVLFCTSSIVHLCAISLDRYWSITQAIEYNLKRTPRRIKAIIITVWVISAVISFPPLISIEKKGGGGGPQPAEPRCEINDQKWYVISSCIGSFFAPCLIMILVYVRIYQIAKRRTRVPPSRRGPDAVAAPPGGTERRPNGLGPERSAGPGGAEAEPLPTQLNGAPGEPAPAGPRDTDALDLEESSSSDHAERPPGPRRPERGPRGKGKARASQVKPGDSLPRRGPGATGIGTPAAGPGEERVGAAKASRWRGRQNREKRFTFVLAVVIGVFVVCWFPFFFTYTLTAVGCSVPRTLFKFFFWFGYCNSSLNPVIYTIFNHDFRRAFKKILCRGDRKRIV
Assay: SAFETYscan GPCR cAMP
pEC50: −log10 of the molar value.
propertyName: pEC50

For record C=CCC1CCCC(CCC(=O)O)C1=C (stereo not shown) the listed pEC50 is < 5.00

###

Target: Kv7.1/KCNE Potassium voltage-gated channel (KvLQT1/minK) (Homo sapiens)
Assay: SAFETYscan Ion channel assay
Conditions: Blocker, read-out: RC50 (the source's name)
propertyName: IC50

For record C=CCC1CCCC(CCC(=O)O)C1=C (stereo not shown) the listed IC50 is > 10 µM

###

Molecular target: Cannabinoid Receptor 1 (CNR1) (Homo sapiens, UniProt P21554)
Assay: SAFETYscan GPCR cAMP
propertyName: EC50

For record C=CCC1CCCC(CCC(=O)O)C1=C (stereo not shown) [HU-MCA-13] the listed EC50 is > 10 µM

###

Target: Dopamine transporter (DAT) (Homo sapiens)
Assay: SAFETYscan Transporter assay
propertyName: IC50

For record C=CCC1CCCC(CCC(=O)O)C1=C (stereo not shown) [HU-MCA-13] the listed IC50 is > 10 µM

###

Target: Monoamine oxidase type A (MAOA) (Homo sapiens)
Sequence (P21397 whole entry): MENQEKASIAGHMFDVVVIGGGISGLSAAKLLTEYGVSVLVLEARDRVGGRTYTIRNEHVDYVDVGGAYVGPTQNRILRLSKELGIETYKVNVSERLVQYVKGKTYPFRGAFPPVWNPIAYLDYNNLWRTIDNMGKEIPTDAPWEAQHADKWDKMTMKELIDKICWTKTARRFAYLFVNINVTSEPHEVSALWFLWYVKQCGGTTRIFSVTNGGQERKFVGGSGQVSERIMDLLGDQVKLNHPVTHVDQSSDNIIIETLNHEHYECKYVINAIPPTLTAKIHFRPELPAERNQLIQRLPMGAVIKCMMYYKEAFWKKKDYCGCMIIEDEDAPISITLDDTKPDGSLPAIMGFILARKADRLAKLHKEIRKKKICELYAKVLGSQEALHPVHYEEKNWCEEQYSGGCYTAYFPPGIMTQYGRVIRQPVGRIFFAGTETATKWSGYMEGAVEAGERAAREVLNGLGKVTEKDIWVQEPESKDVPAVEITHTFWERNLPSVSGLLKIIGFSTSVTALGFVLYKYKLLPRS
propertyName: IC50

For record C=CCC1CCCC(CCC(=O)O)C1=C (stereo not shown) the listed IC50 is > 10 µM

###

Molecular target: Dopamine Receptor D2 (DRD2S) (Homo sapiens, UniProt P14416)
Test: SAFETYscan GPCR cAMP
pEC50: −log10 of the molar value.
propertyName: pEC50

For record C=CCC1CCCC(CCC(=O)O)C1=C (stereo not shown) the listed pEC50 is < 5.00

###

Biological target: Kv7.1/KCNE Potassium voltage-gated channel (KvLQT1/minK) (Homo sapiens, UniProt P51787)
Assay: SAFETYscan Ion channel assay
Conditions: Opener, read-out: RC50 (the source's name)
pEC50: −log10 of the molar value.
propertyName: pEC50

For record C=CCC1CCCC(CCC(=O)O)C1=C (stereo not shown) [HU-MCA-13] the listed pEC50 is < 5.00

###

Molecular target: 5-Hydroxy tryptamine (Serotonin) Receptor 2A (HTR2A) (Homo sapiens, UniProt P28223)
Sequence (P28223 whole entry): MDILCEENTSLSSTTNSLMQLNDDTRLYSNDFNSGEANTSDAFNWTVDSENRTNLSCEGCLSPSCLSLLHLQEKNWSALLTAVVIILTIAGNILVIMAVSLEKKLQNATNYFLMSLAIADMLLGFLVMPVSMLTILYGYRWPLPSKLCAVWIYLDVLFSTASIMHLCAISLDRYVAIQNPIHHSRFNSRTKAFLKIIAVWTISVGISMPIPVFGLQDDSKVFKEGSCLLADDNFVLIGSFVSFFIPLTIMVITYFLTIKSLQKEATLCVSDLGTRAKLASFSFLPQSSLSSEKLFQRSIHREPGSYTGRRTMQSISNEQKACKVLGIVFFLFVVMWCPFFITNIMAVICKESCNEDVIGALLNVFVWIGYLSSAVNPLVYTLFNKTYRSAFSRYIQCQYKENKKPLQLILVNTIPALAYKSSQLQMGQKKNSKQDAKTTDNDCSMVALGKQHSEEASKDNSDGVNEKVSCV
Experiment: SAFETYscan GPCR Calcium Flux
Type: cell-based
pEC50: −log10 of the molar value.
propertyName: pEC50

For record C=CCC1CCCC(CCC(=O)O)C1=C (stereo not shown) the listed pEC50 is < 5.00

###

Target: Cyclooxygenase 2 (COX 2) (Homo sapiens)
pIC50: −log10 of the molar value.
propertyName: pIC50

For record C=CCC1CCCC(CCC(=O)O)C1=C (stereo not shown) [HU-MCA-13] the listed pIC50 is < 5.00

###

Biological target: Muscarinic acetylcholine Receptor M2 (CHRM2) (Homo sapiens)
Sequence (P08172 1-466): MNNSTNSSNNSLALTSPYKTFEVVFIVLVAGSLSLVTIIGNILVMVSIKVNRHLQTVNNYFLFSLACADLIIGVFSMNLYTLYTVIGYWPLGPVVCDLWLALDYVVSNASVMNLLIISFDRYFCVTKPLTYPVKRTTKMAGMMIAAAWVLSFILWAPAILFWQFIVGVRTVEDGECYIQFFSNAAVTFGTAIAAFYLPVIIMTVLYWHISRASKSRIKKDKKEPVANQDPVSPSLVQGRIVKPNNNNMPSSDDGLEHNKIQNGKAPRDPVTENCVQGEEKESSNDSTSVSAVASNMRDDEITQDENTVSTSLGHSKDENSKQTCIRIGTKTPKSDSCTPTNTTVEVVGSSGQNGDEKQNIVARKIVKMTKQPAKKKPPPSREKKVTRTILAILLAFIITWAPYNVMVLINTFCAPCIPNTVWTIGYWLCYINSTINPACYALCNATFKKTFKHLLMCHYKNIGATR
Experiment: SAFETYscan GPCR cAMP
propertyName: EC50

For record C=CCC1CCCC(CCC(=O)O)C1=C (stereo not shown) [HU-MCA-13] the listed EC50 is > 10 µM

###

Target: Cholecystokinin Receptor A (CCKAR) (Homo sapiens, UniProt P32238)
Assay: SAFETYscan GPCR Calcium Flux
Details: Agonist, read-out: RC50 (the source's name)
pEC50: −log10 of the molar value.
propertyName: pEC50

For record C=CCC1CCCC(CCC(=O)O)C1=C (stereo not shown) the listed pEC50 is < 5.00

###

Biological target: Acetylcholinesterase (AChE) (Homo sapiens)
Sequence (P22303 32-614): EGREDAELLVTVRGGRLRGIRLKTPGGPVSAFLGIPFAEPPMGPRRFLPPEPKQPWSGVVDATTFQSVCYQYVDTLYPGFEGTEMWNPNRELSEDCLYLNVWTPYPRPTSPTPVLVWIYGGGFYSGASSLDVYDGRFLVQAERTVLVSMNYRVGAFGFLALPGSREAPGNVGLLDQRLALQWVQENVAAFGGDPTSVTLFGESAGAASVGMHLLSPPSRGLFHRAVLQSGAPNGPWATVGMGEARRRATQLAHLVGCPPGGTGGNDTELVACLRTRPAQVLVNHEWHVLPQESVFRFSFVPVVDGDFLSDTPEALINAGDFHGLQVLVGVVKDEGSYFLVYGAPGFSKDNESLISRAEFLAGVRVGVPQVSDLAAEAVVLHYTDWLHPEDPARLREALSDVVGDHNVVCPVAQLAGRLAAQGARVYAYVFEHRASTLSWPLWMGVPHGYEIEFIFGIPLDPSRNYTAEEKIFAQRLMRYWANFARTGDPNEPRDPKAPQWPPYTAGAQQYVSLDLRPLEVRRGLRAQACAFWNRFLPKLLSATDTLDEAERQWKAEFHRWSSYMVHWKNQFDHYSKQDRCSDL
propertyName: IC50

IC50 of C=CCC1CCCC(CCC(=O)O)C1=C (stereo not shown) [HU-MCA-13] , assay on Acetylcholinesterase (AChE) (Homo sapiens), is > 10 µM

###

Target: 5-Hydroxy tryptamine (Serotonin) Receptor 2A (HTR2A) (Homo sapiens, UniProt P28223)
Test: SAFETYscan GPCR Calcium Flux
Format: cell-based
pIC50: −log10 of the molar value.
propertyName: pIC50

For record C=CCC1CCCC(CCC(=O)O)C1=C (stereo not shown) the listed pIC50 is < 5.00

###

Biological target: Arginine Vasopressin Receptor 1A (AVPR1A) (Homo sapiens, UniProt P37288)
Assay: SAFETYscan GPCR Calcium Flux
Conditions: Agonist, read-out: RC50 (the source's name)
pEC50: −log10 of the molar value.
propertyName: pEC50

For record C=CCC1CCCC(CCC(=O)O)C1=C (stereo not shown) the listed pEC50 is < 5.00

###

Target: Opioid Receptor Kappa 1 (OPRK1) (Homo sapiens)
Construct: host or cells: cAMP Hunter cell lines
Sequence (P41145 whole entry): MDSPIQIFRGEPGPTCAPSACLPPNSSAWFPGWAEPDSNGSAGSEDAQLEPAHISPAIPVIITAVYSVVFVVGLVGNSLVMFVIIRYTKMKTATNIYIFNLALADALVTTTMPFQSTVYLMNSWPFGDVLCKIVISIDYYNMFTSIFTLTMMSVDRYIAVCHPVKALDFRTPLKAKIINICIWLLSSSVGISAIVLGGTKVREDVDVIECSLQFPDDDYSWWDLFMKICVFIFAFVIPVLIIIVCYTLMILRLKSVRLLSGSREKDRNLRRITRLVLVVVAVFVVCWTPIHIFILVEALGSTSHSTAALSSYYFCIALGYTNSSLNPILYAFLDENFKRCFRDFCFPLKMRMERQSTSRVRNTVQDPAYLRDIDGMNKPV
Assay: SAFETYscan GPCR cAMP
Assay type: cell-based
propertyName: IC50

For record C=CCC1CCCC(CCC(=O)O)C1=C (stereo not shown) the listed IC50 is > 10 µM

###

Molecular target: Dopamine Receptor D1 (DRD1) (Homo sapiens, UniProt P21728)
Sequence (P21728 whole entry): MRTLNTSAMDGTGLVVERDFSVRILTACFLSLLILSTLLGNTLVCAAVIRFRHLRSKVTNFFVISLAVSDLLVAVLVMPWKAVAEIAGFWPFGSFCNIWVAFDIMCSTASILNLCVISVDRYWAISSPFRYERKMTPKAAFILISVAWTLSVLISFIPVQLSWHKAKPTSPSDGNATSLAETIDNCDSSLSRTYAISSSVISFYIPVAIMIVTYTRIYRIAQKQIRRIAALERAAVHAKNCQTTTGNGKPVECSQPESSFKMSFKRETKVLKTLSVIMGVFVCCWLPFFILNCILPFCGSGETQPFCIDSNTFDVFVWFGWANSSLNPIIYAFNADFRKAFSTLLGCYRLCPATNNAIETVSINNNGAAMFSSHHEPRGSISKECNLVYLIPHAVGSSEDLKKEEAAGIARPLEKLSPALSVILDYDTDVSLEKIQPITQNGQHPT
Experiment: SAFETYscan GPCR cAMP
propertyName: EC50

For record C=CCC1CCCC(CCC(=O)O)C1=C (stereo not shown) [HU-MCA-13] the listed EC50 is > 10 µM

###

Target: UniProt P07550
Sequence (P07550 whole entry): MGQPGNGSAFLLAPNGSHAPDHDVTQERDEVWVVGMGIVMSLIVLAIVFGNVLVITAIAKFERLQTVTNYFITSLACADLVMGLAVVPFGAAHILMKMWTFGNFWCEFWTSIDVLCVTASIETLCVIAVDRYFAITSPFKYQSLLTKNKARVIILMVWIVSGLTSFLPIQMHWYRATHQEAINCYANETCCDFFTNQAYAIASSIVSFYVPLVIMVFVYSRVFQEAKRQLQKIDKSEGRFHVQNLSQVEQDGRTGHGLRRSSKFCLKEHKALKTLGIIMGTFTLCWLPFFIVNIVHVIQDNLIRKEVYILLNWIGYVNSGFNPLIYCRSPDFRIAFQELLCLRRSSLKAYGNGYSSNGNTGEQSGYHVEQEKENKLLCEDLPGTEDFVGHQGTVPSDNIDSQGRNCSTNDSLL
Assay: SAFETYscan GPCR cAMP
Type: cell-based
pIC50: −log10 of the molar value.
propertyName: pIC50

For record C=CCC1CCCC(CCC(=O)O)C1=C (stereo not shown) [HU-MCA-13] the listed pIC50 is < 5.00

###

Biological target: Nicotinic acetylcholine Receptor alpha-4 beta-2 (nAChR(a4/b2)) (Homo sapiens, UniProt P17787+P43681)
Sequence (P43681 29-627 limits assumed): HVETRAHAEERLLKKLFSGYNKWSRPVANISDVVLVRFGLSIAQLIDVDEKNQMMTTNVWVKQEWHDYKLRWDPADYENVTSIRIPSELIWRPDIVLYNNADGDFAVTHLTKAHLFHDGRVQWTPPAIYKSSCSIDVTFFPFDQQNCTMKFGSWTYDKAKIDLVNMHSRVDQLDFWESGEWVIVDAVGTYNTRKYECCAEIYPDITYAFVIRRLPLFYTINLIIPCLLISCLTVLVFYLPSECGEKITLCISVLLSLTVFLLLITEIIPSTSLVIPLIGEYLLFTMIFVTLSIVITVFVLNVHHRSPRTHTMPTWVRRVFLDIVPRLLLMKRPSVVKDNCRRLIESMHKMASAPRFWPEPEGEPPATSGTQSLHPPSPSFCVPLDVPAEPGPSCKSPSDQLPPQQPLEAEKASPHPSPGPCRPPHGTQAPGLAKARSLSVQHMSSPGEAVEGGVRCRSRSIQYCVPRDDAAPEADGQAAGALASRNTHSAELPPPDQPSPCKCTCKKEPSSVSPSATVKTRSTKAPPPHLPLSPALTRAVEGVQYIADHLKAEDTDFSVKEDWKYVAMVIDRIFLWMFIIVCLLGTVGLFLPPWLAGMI
Sequence (P17787 26-502): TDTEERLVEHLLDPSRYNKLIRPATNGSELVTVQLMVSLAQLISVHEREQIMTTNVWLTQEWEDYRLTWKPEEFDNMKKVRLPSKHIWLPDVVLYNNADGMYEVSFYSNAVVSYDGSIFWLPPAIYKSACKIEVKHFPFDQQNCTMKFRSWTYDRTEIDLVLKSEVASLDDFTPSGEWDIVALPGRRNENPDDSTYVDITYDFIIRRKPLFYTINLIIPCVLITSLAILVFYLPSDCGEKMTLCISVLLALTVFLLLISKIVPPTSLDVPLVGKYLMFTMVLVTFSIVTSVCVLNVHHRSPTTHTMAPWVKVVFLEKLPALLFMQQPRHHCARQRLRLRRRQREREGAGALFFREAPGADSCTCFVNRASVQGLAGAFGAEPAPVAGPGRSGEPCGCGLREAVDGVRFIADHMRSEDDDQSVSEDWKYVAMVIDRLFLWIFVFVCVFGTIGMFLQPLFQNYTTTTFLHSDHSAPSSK
Assay: cell-based
Conditions: Opener; Ion channel; read-out: RC50 (the source's name)
propertyName: EC50

For record C=CCC1CCCC(CCC(=O)O)C1=C (stereo not shown) the listed EC50 is > 10 µM

###

Target: 5-Hydroxy tryptamine (Serotonin) Receptor 1A (HTR1A) (Homo sapiens, UniProt P08908)
Construct: host or cells: cAMP Hunter cell lines
Experiment: SAFETYscan GPCR cAMP
Assay type: cell-based
pEC50: −log10 of the molar value.
propertyName: pEC50

For record C=CCC1CCCC(CCC(=O)O)C1=C (stereo not shown) the listed pEC50 is < 5.00

###

Biological target: Dopamine Receptor D2 (DRD2S) (Homo sapiens)
Assay: SAFETYscan GPCR cAMP
propertyName: IC50

For record C=CCC1CCCC(CCC(=O)O)C1=C (stereo not shown) the listed IC50 is > 10 µM

Cited source: paper PMC7497641
